Provide the reported switch fluorescence ratio of each item.
- System: ATP;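 further: ATP exposure 15 min at 22 °C before imaging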
- measurementDescription: switch fluorescence ratio, 500 uM ATP over buffer (Cy3 cluster intensity, sum of 5 cycles each) (fold (ratio)); higher = stronger signal-on switching upon ATP binding; sequences stand for … in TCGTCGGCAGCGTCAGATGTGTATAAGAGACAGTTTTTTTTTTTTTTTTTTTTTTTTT…TC
- assayConditions: aptamer strand: ATP DNA aptamer (quencher-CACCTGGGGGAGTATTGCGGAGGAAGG + anchor), 100 nM annealed; ATP concentration: 500 uM
Could you respond with only the numeric value?

Query :: Which switch fluorescence ratio is reported for this sequence? "GGTCTTGAGG"
Result :: 1.01

Query :: Repeat with "ATATGGATGT"
Result :: 0.997

Query :: What about "ACGTTCTGTT" ?
Result :: 1.02

Query :: Another sequence to check: "CCATTATAT"
Result :: 0.982

Query :: Would you kindly repeat that for "TATGTTAGTC" ?
Result :: 0.988

Query :: Thanks! And "CAGTACTCTT" ?
Result :: 1.01

Query :: Next: "GGTGTCTGCA"
Result :: 0.993

Query :: // same read-out, input: "AATTAAAAGT"
Result :: 0.989

Query :: Try "ATCTGTTTTT" next.
Result :: 0.972

Query :: "GGTTGCTTGA" ?
Result :: 0.985

Query :: // next record "GTTGGGTGAG"
Result :: 0.987
